Data origin, for the record: ChEMBL document CHEMBL1201862

Test system: UACC-62
ASSAY_NOTES: NCI tumour cell line growth inhibition, 48 h
Calls of active or inactive are those of the source. Cut-off read from the data, not from the text of the source: active = GI50 up to about 1.1 µM and inactive = higher.
Outcome codes: active, inactive

- COMPOUND: "COc1ccc(C2C3=C(CCCC3=O)N(c3ccccc3)C3=C2C(=O)CCC3)cc1"
  CLASS: "inactive"
- COMPOUND: "COC(=O)[C@H]1COC(=S)N1C(=O)[C@@H](C)[C@H](O)C(C)C"
  CLASS: "inactive"
- COMPOUND: "C=CC(Cl)(CBr)CCC(Br)C(C)(C)Cl (stereo not drawn)"
  CLASS: "inactive"
- COMPOUND: "[O-][S+]1C(=c2ccc(=C3Sc4ccccc4S3)cc2)Sc2ccccc21 (stereo not drawn)"
  CLASS: "inactive"
- COMPOUND: "NNC(=O)CNC(=O)CSc1nnc(COc2ccc(Cl)cc2)n1-c1ccccc1"
  CLASS: "inactive"
- COMPOUND: "Cc1nn(C(=O)c2ccc(Cl)cc2)c2c1C(c1ccc(O)cc1)SC(=N)N2 (stereo not drawn)"
  CLASS: "inactive"
- COMPOUND: "O=C1CCc2ccc(O)c(c2)Oc2ccc(cc2)[C@@H]2O[C@@H]2CO1"
  CLASS: "inactive"
- COMPOUND: "Cc1cccc2c1CC1(Cc3ccccc3C1=O)C2=O (stereo not drawn)"
  CLASS: "inactive"
- COMPOUND: "CN(C(=O)C12C3C4C1C1C2C3C41C(=O)O)C(C)(C)C (stereo not drawn)"
  CLASS: "inactive"
- COMPOUND: "CCOC(=O)Nn1c(C)nnc1-c1ccccc1"
  CLASS: "inactive"
- COMPOUND: "O=C1OC2(OC2c2ccccc2)c2ccccc21 (stereo not drawn)"
  CLASS: "inactive"
- COMPOUND: "c1csc(-c2csc(-c3ccsc3)c2)c1"
  CLASS: "inactive"
- COMPOUND: "C[C@@H]1CC[C@@H]2[C@@H](C1)O[C@@H]([C@@H](C)OCc1ccccc1)SC2(C)C"
  CLASS: "inactive"
- COMPOUND: "ClCCN(CCCl)c1ccc(CNCCCNCc2ccc(N(CCCl)CCCl)cc2)cc1"
  CLASS: "inactive"
- COMPOUND: "COc1cc2nc(-c3ccccc3F)nc(O)c2cc1OC"
  CLASS: "inactive"
- COMPOUND: "CCN(CC)CCNC(=O)c1cc2cc(NC(=O)c3cc4cc(NC(=O)c5cc6cc([N+](=O)[O-])ccc6[nH]5)ccc4[nH]3)ccc2[nH]1"
  CLASS: "inactive"
- COMPOUND: "Cc1ccc2nc(Cl)c(/C=N/N3C(=O)/C(=C/c4ccccc4S)N=C3c3ccccc3)cc2c1"
  CLASS: "inactive"
- COMPOUND: "CN(C)CCNC(=O)c1cccc2[nH]c(-c3ccccn3)nc12"
  CLASS: "inactive"
- COMPOUND: "C=CCONC(=O)c1ccc(Cl)cc1"
  CLASS: "inactive"
- COMPOUND: "COC(=O)c1cc(Br)c(C(=O)C(Cl)(Cl)Cl)[nH]1"
  CLASS: "inactive"
- COMPOUND: "COc1ccc(/C=C(\\C#N)c2ccccn2)cc1OC"
  CLASS: "inactive"
- COMPOUND: "CC(C)N(C(=O)C12C3C4C5(C#N)C3C1(C#N)C5C42I)C(C)C (stereo not drawn)"
  CLASS: "inactive"
- COMPOUND: "[O-][Cl+3]([O-])([O-])[O-].[O-][Cl+3]([O-])([O-])[O-].c1ccn2c(N3CCOCC3)[n+]3c4ccccc4[n+]4c(N5CCOCC5)n5ccccc5c4c3c2c1"
  CLASS: "inactive"
- COMPOUND: "c1cc(-c2cn3c(n2)SCC3)ccn1"
  CLASS: "inactive"
- COMPOUND: "O=[N+]([O-])c1ccc(Oc2c(Cl)cc(S(=O)(=O)N/C(=N\\O)Nc3ccc(Cl)cc3)cc2Cl)cc1"
  CLASS: "inactive"
- COMPOUND: "COc1ccccc1C[C@@H]1OC2(C=CC(=O)CC2SC(=O)c2ccccc2)O[C@H]1Cc1ccccc1OC (stereo partly drawn)"
  CLASS: "inactive"
- COMPOUND: "CCOC(=O)c1nn2c(nc1=O)sc1ccc3ccccc3c12"
  CLASS: "inactive"
- COMPOUND: "O=C1NC2ON=C(c3ccccc3)C2C2ON=C(c3ccccc3)N12 (stereo not drawn)"
  CLASS: "inactive"
- COMPOUND: "CCNc1cc2c3c(c1)CCN3CCC2"
  CLASS: "inactive"
- COMPOUND: "COc1ccc2c(c1)CN1CCc3c(cc(OC)c(OC)c3OC)C1C2 (stereo not drawn)"
  CLASS: "inactive"
- COMPOUND: "COc1ccccc1NC(=O)C1=C(C)NC(C)=C(C(=O)Nc2ccccc2OC)C1c1ccc(C(C)C)cc1"
  CLASS: "inactive"
- COMPOUND: "Cc1n[nH]c(=O)c2cc(-c3ccccc3)[nH]c12"
  CLASS: "inactive"
- COMPOUND: "COc1ccc(OC)c(CCc2cc(OC)c(OC)cc2C)c1"
  CLASS: "inactive"
- COMPOUND: "C=C(CO)CC(O)c1ccccc1 (stereo not drawn)"
  CLASS: "inactive"
- COMPOUND: "Cc1[nH]c2ccccc2c1C1Cc2ccccc2N1C(=O)C#Cc1ccc([N+](=O)[O-])cc1 (stereo not drawn)"
  CLASS: "inactive"
- COMPOUND: "S=C(N/N=C(/c1ccccc1)c1ccccn1)Nc1ccccc1Cl"
  CLASS: "active"
- COMPOUND: "CN(CCO)/N=N/c1n[nH]cc1C(N)=O"
  CLASS: "inactive"
- COMPOUND: "COC(=O)c1sc2c(c1C(=O)OC)/C(=N/C(C)(C)C)S/C2=N\\C(C)(C)C"
  CLASS: "inactive"
- COMPOUND: "O=C(c1cccc(C(=O)c2ccc3c4c(cccc24)C(=O)N(c2ccccc2)C3=O)c1)c1ccc2c3c(cccc13)C(=O)N(c1ccccc1)C2=O"
  CLASS: "inactive"
- COMPOUND: "O=C(c1cccs1)N1CCc2ccccc2C1"
  CLASS: "inactive"
- COMPOUND: "CC(=O)c1c(C)[n+]([O-])c2cc(C)c(C)cc2[n+]1[O-]"
  CLASS: "inactive"
- COMPOUND: "C/C(CC(O)(C(F)(F)F)C(F)(F)F)=N\\NC(N)=S"
  CLASS: "inactive"
- COMPOUND: "CC(NC(=O)/C(=C/c1ccccc1O)NC(=O)c1ccccc1)C(=O)O (stereo not drawn)"
  CLASS: "inactive"
